assayed-target: humanized development candidate monoclonal antibody IgG4 (hIgG4)
protocol: SPR (Biacore T200), mAb captured by anti-rabbit mAb on CM5, antigen 80-0 nM, 1:1 fit
pKd: −log10 of the molar value.
Quick rule: pKd of at least 10 means MET, below that means NOT MET.

[
  {
    "binder": "rabbit anti-human IgG monoclonal antibody clone 11G5 (antibody, V domains shown) VH: QSLEESGGDLVKPGASLTLTCTASGFSFSSSYYMCWVRQAPGKRLEWIACIYGGGLSNTYYAGWAKGRFTISKTSSTTVTLQMTSLTAADTATYFCARDATSGDYLNLWGPGTLVTVSS VL: AVVMTQTASPVSGAVGGTVTINCQASQSISASALSWYQQKPGQPPKLLIYAASTLESGVPSRFKGSGSGTQFTLTISGVQCDDAATYYCAYDGYRLSSADNIFGGGTEVVVKG",
    "category-label": "MET"
  },
  {
    "binder": "rabbit anti-human IgG monoclonal antibody clone 11F9 (antibody, V domains shown) VH: QQQLEESGGGLVQPEGSLTLTCIASGFSFSSSHWICWVRQAPGKGLEWIACMSTSSGSTYDANWAKGRFTISKTSSTTVTLQMTSLTAADTATYFCARDVGGSTTYFDLWGPGTLVTVSS VL: AYDMTQTPASVSEPVGGTVTIKCQASQSISNELSWYQQKPGQPPKLLIYRASTLASGVPSRFKGSGSGTQFTLTINGVECADAATYYCQQGYSISNVDNTFGGGTEVVVKG",
    "category-label": "NOT MET"
  },
  {
    "binder": "rabbit anti-human IgG monoclonal antibody clone 16F5 (antibody, V domains shown) VH: QQQLEESGGGLVKPGGTLTLTCKASGIDFSNYYYMCWVRQAPGKGLELIACIYTGSSGSTWYATWAKGRFTISKTSSTTVTLQMTSLTAADTATYFCARDRDVGSLYDSLDLWGQGTLVTVSP VL: AYDMTQTPASVEAAVGGTVTINCQASQSINNWLSWYQQKPGQRPKLLIYQASTLASGVSSRFKGSGSGTHFTLTISDLECADAATYYCQQGWSIDDIDNAFGGGTEVVVKG",
    "category-label": "NOT MET"
  }
]

The reported numbers originate from patent US20250237662A1.
